Molecular target: T1, activated human complement C1s (human, UniProt P09871 16-688)
T1 construct: also called aC1s; active C1s
T1 sequence: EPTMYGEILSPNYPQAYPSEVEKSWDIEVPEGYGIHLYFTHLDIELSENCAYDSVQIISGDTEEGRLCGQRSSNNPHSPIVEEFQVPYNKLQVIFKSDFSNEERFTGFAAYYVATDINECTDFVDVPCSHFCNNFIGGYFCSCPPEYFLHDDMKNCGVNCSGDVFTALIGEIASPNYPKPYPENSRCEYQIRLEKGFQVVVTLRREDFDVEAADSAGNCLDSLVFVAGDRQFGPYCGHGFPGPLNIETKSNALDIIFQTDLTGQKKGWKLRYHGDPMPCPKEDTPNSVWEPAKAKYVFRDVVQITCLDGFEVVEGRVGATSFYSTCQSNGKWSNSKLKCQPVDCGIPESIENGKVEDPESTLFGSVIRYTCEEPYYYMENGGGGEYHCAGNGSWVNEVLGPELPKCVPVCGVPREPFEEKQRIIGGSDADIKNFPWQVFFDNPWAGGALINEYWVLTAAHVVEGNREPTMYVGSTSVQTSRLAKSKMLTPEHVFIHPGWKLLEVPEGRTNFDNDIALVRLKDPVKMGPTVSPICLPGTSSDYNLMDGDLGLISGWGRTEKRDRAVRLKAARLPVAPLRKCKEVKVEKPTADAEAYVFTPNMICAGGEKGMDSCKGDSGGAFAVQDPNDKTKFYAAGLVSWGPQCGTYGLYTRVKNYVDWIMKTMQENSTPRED
Assay: kinetic characterization of binding to active human C1s; instrument not stated
ENDPOINT_LABEL: pKd
pKd here: minus log base 10 of the concentration, concentration in moles per litre.

Can you share its pKd? I mean this binder: humanized TNT005 variant VH variant 5+Vk variant 1 (antibody, V domains shown, also called VH variant 5 + VL variant 1) VH: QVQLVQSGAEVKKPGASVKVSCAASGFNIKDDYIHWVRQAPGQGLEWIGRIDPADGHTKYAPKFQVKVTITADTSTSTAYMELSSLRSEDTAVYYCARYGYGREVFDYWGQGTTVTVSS VL: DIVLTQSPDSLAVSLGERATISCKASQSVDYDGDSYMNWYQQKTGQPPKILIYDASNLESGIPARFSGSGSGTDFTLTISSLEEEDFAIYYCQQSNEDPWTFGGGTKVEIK 9.34

Same question, humanized TNT005 variant VH variant 2+Vk variant 5 (antibody, V domains shown, also called VH variant 2 + VL variant 5) VH: EVQLVQSGAEVKKPGASVKLSCTASGFNIKDDYIHWVKQAPGQGLEWIGRIDPADGHTKYAPKFQVKATITADTSTNTAYLELSSLRSEDTAVYYCARYGYGREVFDYWGQGTTVTVSS VL: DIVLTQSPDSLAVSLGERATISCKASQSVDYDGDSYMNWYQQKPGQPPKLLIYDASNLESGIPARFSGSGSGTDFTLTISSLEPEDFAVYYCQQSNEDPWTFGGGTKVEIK this time 9.68

Same question, humanized TNT005 variant VH variant 1+Vk variant 2 (antibody, V domains shown, also called VH variant 1 + VL variant 2) VH: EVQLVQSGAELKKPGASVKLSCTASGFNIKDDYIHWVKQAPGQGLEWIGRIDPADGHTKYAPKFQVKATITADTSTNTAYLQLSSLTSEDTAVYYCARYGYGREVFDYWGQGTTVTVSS VL: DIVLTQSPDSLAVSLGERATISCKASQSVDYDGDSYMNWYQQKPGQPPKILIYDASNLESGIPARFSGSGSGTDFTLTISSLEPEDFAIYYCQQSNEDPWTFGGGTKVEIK this time 9.68

More entries:
Can you share its pKd? I mean this binder: humanized TNT005 variant VH variant 2+Vk variant 2 (antibody, V domains shown, also called VH variant 2 + VL variant 2) VH: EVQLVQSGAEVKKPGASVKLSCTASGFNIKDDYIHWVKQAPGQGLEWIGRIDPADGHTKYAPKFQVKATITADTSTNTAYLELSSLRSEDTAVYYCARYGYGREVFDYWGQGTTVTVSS VL: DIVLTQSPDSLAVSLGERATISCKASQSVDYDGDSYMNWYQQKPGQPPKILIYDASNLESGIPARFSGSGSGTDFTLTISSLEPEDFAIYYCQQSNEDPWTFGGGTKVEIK 9.69

Same question, humanized TNT005 variant VH variant 1+Vk variant 1 (antibody, V domains shown, also called VH variant 1 + VL variant 1) VH: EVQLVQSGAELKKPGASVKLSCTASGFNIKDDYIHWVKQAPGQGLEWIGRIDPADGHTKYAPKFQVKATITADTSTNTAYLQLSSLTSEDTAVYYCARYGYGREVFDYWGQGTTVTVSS VL: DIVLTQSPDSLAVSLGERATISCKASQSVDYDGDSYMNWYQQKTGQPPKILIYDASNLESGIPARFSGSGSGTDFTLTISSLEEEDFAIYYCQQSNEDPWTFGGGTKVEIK this time 9.64
